# system: T1, P2-AA-12HGe-M
# T1 chain: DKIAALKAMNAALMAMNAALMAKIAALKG
# test.method.notes: two-hybrid library CCmax;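 also: natural log of median RNA to DNA barcode read ratio; higher means stronger binding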
# measurement.setup: mean of both orientations

binder: DEIAALEAYNAALYAYNAALYAEIAALEG [P1-AA-12HGe-Y]
interaction score: 1.77
--
binder: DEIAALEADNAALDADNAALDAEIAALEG [P1-AA-12HGe-D]
interaction score: -2.19
--
binder: DEIAALEASNAALSASNAALSAEIAALEG [P1-AA-12HGe-S]
interaction score: -0.332
--
binder: DEIAALEATNAALTATNAALTAEIAALEG [P1-AA-12HGe-T]
interaction score: -0.103
